Parameter: pEC50. Scope: all listed entries.
Biological target: ΔF508-CFTR (Homo sapiens, UniProt P13569, DEL508-508)
Sequence (P13569 with tags, fused parts or gaps DEL508-508): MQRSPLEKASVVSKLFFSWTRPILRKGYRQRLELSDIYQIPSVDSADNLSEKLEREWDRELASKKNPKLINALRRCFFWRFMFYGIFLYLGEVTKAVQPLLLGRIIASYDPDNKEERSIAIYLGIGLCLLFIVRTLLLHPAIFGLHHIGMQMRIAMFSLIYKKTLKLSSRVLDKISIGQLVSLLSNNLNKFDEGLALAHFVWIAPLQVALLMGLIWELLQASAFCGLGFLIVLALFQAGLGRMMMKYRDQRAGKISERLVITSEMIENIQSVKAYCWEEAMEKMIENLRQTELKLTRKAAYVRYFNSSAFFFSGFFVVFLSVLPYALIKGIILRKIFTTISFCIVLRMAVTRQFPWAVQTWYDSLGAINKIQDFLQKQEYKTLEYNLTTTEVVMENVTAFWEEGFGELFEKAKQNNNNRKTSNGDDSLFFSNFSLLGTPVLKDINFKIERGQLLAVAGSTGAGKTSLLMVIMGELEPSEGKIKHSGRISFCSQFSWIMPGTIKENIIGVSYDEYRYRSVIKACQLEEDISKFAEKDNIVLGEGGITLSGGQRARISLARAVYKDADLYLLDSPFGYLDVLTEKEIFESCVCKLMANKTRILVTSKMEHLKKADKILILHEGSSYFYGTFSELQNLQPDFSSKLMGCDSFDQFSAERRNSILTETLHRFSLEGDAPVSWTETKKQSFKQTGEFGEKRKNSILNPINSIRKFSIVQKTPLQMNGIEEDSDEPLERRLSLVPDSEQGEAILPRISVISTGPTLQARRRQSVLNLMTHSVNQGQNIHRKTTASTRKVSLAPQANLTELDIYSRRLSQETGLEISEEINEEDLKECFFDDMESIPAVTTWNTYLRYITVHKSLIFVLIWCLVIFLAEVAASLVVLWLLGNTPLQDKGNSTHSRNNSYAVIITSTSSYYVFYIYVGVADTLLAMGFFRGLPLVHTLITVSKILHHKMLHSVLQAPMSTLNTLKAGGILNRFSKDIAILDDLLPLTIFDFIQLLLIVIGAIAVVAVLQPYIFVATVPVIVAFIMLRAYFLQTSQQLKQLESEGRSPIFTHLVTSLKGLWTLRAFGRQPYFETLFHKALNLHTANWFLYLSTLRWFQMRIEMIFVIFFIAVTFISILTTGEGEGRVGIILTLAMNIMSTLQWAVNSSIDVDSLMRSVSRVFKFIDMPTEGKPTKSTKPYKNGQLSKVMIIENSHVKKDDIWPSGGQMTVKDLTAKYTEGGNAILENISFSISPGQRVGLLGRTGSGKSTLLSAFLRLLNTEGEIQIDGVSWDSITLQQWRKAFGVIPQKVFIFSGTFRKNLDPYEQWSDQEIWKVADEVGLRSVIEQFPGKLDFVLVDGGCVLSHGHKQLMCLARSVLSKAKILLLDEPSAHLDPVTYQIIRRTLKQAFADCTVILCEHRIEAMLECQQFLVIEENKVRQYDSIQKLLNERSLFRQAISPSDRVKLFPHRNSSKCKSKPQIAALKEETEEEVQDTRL
Assay: Membrane potential optical assay (FRET/VIPR), identification of correction compounds
pEC50: −log10 of the molar value.

>  <COMPOUND>
COc1ccc(S(=O)(=O)N2CCN(C(C)c3nc4ccc(Cl)cc4c(=O)n3C)CC2)cc1OC (stereo not shown)

>  <VAL>
4.60 to 5.00

$$$$

Asked: Identify the measured pEC50 of COc1ccc2nc(C(C)N3CCN(S(=O)(=O)c4ccc(Br)cc4)CC3)n(C)c(=O)c2c1 (stereo not shown) for ΔF508-CFTR (Homo sapiens, UniProt P13569, DEL508-508).
Given back: > 5.00

Asked: Consider next the compound COc1ccc(S(=O)(=O)N2CCN(C(C)c3nc(N4CC(C)CC(C)C4)c4ccccc4n3)CC2)cc1 (stereo not shown) in the same way.
Given back: 4.22 to 4.60

Asked: Consider next the compound CC(=O)NCCn1c(C(C)N2CCN(S(=O)(=O)c3ccc(Br)cc3)CC2)nc2ccccc2c1=O (stereo not shown) in the same way.
Given back: 4.22 to 4.60

###

Target: ΔF508-CFTR (Homo sapiens, UniProt P13569, DEL508-508)
Assay: Membrane potential optical assay (FRET/VIPR), identification of correction compounds
pEC50: −log10 of the molar value.
PROPERTY_NAME: pEC50

Observe how each entry below is paired with its result.
>  <COMPOUND>
COc1ccc(S(=O)(=O)N2CCN(C(C)c3nc(OC4CCCC4)c4ccccc4n3)CC2)cc1 (centres unmarked) [compound 397]

>  <SYSTEM_NAME>
ΔF508-CFTR (Homo sapiens, UniProt P13569, DEL508-508)

>  <VAL>
4.60 to 5.00

$$$$
>  <COMPOUND>
COc1ccc(S(=O)(=O)N2CCC(C(C)c3nc4ccccc4c(=O)[nH]3)CC2)cc1 (centres unmarked)

>  <SYSTEM_NAME>
ΔF508-CFTR (Homo sapiens, UniProt P13569, DEL508-508)

>  <VAL>
4.60 to 5.00

$$$$
>  <COMPOUND>
CC(c1nc2ccc(Cl)cc2c(=O)n1C)N1CCN(C(=O)Nc2ccc(Cl)cc2)CC1 (centres unmarked)

>  <SYSTEM_NAME>
ΔF508-CFTR (Homo sapiens, UniProt P13569, DEL508-508)

>  <VAL>
4.60 to 5.00

$$$$

Asked: Identify the measured pEC50 of CC(c1nc2ccccc2c(=O)n1C)N1CCN(S(=O)(=O)c2cccc(C(F)(F)F)c2)CC1 (centres unmarked) for ΔF508-CFTR (Homo sapiens, UniProt P13569, DEL508-508).
Given back: 4.60 to 5.00

Asked: Consider next the compound CC(c1nc2ccccc2c(=O)n1C)N1CCN(C(=O)c2ccccc2Cl)CC1 (centres unmarked) in the same way.
Given back: 4.22 to 4.60

Asked: Consider next the compound C#Cc1ccc(S(=O)(=O)N2CCN(C(C)c3nc4ccccc4c(=O)n3C)CC2)cc1 (centres unmarked) in the same way.
Given back: 4.60 to 5.00

Asked: Consider next the compound COc1ccc(S(=O)(=O)NCCCN(C(C)c2nc3ccccc3c(=O)n2C)S(=O)(=O)c2ccc(OC)cc2)cc1 (centres unmarked) in the same way.
Given back: 4.22 to 4.60

Asked: Consider next the compound CC(c1nc2ccccc2c(=O)n1C)N1CCC(NS(=O)(=O)c2ccc(Br)cc2)CC1 (centres unmarked) in the same way.
Given back: > 5.00
